System: m1 through m4 muscarinic receptors
Assay: Displacement of [3H]NMS from muscarinic receptors (m1-m4), subtype not singled out
Type: binding
Conditions: in words; m1 versus m2 / among subtypes
ENDPOINT: receptor subtype selectivity

                                   compound                      endpoint   result_value
0  NCCCCCCCCCCN1CCN(CC(=O)N2c3ccccc3C(=O)Nc3cccnc32)CC1 [Compound 34h]  receptor subtype selectivity  non-selective
1  C#CCN1CCN(CC(=O)N2c3ccccc3C(=O)Nc3cccnc32)CC1 [Compound 22]  receptor subtype selectivity  non-selective

###

Target: m2 muscarinic receptors (Rattus norvegicus, UniProt P10980)
Sequence (P10980 1-466): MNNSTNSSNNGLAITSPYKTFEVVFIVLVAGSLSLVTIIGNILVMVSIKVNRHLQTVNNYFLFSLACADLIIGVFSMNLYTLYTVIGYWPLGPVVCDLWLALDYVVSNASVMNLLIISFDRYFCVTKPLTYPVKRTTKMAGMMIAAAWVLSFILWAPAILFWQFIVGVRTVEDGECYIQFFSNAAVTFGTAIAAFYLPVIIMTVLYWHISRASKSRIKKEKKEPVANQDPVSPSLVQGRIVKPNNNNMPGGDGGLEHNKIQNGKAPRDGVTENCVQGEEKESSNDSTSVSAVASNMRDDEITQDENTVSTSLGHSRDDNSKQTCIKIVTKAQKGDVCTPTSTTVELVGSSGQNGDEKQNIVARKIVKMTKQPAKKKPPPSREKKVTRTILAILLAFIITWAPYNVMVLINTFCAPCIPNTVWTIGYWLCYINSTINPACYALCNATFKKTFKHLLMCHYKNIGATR
pKd: −log10 of the molar value.
ENDPOINT: pKd

Per the records, this compound ( NCCCCCCCCCCN1CCN(CC(=O)N2c3ccccc3C(=O)Nc3cccnc32)CC1 [Compound 34h] ) has pKd equal to > 7.70

###

Molecular target: m1 muscarinic receptors (Rattus norvegicus, UniProt P08482)
Sequence (P08482 1-460): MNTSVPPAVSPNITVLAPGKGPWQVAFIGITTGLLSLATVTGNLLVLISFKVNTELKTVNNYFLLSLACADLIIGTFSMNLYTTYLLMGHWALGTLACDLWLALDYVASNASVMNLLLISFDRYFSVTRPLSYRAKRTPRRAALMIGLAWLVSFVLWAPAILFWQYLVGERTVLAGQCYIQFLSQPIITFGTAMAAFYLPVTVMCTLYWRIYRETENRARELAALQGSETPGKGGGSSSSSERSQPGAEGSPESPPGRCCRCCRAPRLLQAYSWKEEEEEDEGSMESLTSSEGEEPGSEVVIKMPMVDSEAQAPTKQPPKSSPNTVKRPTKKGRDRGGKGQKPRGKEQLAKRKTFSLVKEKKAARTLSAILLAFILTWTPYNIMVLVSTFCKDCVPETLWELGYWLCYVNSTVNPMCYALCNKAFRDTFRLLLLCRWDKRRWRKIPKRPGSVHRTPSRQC
ENDPOINT: Kd

Per the records, this compound ( NCCCCCCCCCCN1CCN(CC(=O)N2c3ccccc3C(=O)Nc3cccnc32)CC1 [Compound 34h] ) has Kd equal to < 20 nM

###

Tested on: m1 through m4 muscarinic receptors
Assay: Displacement of [3H]NMS from muscarinic receptors (m1-m4), subtype not singled out
Format: binding
Conditions: in words, qualitative
ENDPOINT: affinity / potency at muscarinic receptors

>>> print(df.to_string())
                                   compound  result_value
0  CN1CCN(CC(=O)N2c3ccccc3C(=O)N(CCCCCCC#N)c3cccnc32)CC1 [Compound 17b]  low affinity
1  CCN1C(=O)c2ccccc2N(C(=O)CN2CCN(C)CC2)c2ncccc21 [Compound 17a]  low affinity

###

Target: m1 muscarinic receptors (Rattus norvegicus)
ENDPOINT: Ki (nM)
Give just the numeric value; nM need not be written.

Per the records, this molecule ( "Cc1scc2c1N(C(=O)CN1CCN(CCCCCCCCCCN)CC1)c1ccccc1NC2=O" ) has Ki equal to 2.39
